- Tgt: T1, Human PD-L1 His (human PD-L1 ECD with C-terminal His tag) (human, UniProt Q9NZQ7 19-238)
- T1 construct: Biotinylated in ELISA and AlphaScreen assays; also called hPD-L1-his; biotinylated PD-L1 his
- Assay explanation: ELISA, biotin-PD-L1 to plate-bound PD-1, antibody titrated
Readout type: IC50

Recorded IC50 (binder 385F01 (antibody, human IgG1, kappa, V domains shown) VH: EVQLVESGGGLVQPGGSLRLSCAASGFTFSSYWMSWVRQAPGKGLEWVANIKEDGSEKYYVDSVKGRFTISRDNAKNSLYLQMNSLRAEDTSVYYCARNRLYSDFLDNWGQGTLVTVSS VL: DIQMTQSPSSVSASVGDRVTITCRASQGVSSWLAWYQQKSGKAPKLLIYGASSLQSGVPSRFSGSGSGTEFILTISSLQPEDFATYYCQQANSIPFTFGPGTKVDIKR ): 2.25 nM

Recorded IC50 (binder 413G05 (antibody, human IgG1, kappa, V domains shown) VH: QVQLVESGGGLVKPGGSLRLSCAASGFTFSDYYMSWIRQVPGKGLEWVSYISTSGSTIYYADSVKGRFTISRDNAKNSLYLQMNSLRAEDAAVYHCARGITGTNFYHYGLGVWGQGTTVTVSS VL: DIQMTQSPSSVSASVGDRVTITCRASQGINSWLAWYQQKPGKAPKLLIYAASTLQSGVPSRFSGSGSGADFTLTISSLQPEDFATYYCQQVNSFPLTFGGGTKVEIKR ): 2.02 nM

Recorded IC50 (binder 411C04 (antibody, human IgG1, kappa, V domains shown) VH: EVQLVDSGGGLVQPGGSLRLSCAASGFTFSSYWMSWVRQAPGKGLEWVANIKEDGSEKYYVDSLKGRFTISRDNAKNSLYLQMNSLRAEDTSVYYCARVRLYSDFLDYWGQGTLVTVSS VL: DIQMTQSPSSVSASVGDRVTITCRASQGVSSWLAWYQQKSGKAPKLLIYGASSLQSGVPSRFSGSGSGTEFILSISSLQPEDFATYYCQQANSIPFTFGPGTKVDIKR ): 2.45 nM

Recorded IC50 (binder 414B06 (antibody, V domains shown, also called 414606) VH: EVHLVESGGGLVQPGGSLRLSCAASGFTFSSYWMNWVRQAPGKGLEWVANIKQDGSEKYYVDSVKGRFTVSRDNAKNSLYLQMNSLRAEDTAVYYCARVRQWSDYSDYWGQGTPVTVSS VL: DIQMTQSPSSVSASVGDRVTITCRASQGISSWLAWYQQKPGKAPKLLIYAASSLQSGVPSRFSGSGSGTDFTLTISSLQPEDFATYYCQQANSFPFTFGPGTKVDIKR ): 1.84 nM

Recorded IC50 (binder 411B08 (antibody, human IgG1, kappa, V domains shown) VH: EVQLVESGGGLVQPGGSLRLSCAASGFTFSSYWMSWVRQAPGKGLEWVANIKEDGSEKYYVDSVKGRFTISRDNAKNSLYLQMNSLRAEDTSVYYCARNRLYSDFLDNWGQGTLVTVSS VL: DIQMTQSPSSVSASVGDRVTITCRASQGVSSWLAWYQQKSGKAPKLLIYGASSLQSGVPSRFSGSGSGTEFILTISSLQPEDFATYYCQQANSIPFTFGPGTKVDIKR ): 2.22 nM
